Source listed as patent US7186831B2.

# PROTOCOL_DESCRIPTION: log P by HPLC
# Assay type: physicochemical
# TEST_CONDITIONS: EEC directive 79/831 Annex V. A8 by HPLC (gradient method, acetonitrile/0.1% aqueous phosphoric acid)
MEASUREMENT_LABEL: logP

> print(dat)
                                   molecule  value.measured
1  Cc1nc2nc(Cl)c(-c3c(F)cccc3F)c(N3CCC(F)CC3)n2n1            2.85
2       CONc1c(-c2ccccc2F)c(Cl)nc2nc(C)nn12            2.03
3  Cc1nc2nc(Cl)c(-c3c(F)cccc3Cl)c(N3CCSCC3)n2n1            3.18
4  C=C(C)CN(CC)c1c(-c2ccc(F)cc2F)c(Cl)nc2nc(C3CC3)nn12            4.37
5  C=CCN(C)c1c(-c2c(F)cccc2Cl)c(Cl)nc2nc(C)nn12            3.26
6  Cc1nc2nc(Cl)c(-c3ccccc3F)c(NC(C)C3CCCCC3)n2n1 (stereo not drawn)            4.16

---

// reported logP for each item listed
# PROTOCOL_DESCRIPTION: log P by HPLC
# Type: physicochemical
# TEST_CONDITIONS: EEC directive 79/831 Annex V. A8 by HPLC (gradient method, acetonitrile/0.1% aqueous phosphoric acid)
MEASUREMENT_LABEL: logP

> print(dat)
                                   molecule  value.measured
1  C=CCN(CC)c1c(-c2c(F)cccc2Cl)c(Cl)nc2nc(C)nn12 [compound 267]            3.59
2  Cc1nc2nc(Cl)c(-c3c(F)cccc3F)c(N3CCCC3C)n2n1 (centres unmarked) [compound 304]            3.02
3  CCNc1c(-c2c(F)cccc2F)c(Cl)nc2nc(C)nn12 [compound 419]            2.31
4  Cc1nc2nc(Cl)c(-c3ccccc3F)c(NCC3CC3)n2n1 [compound 393]            2.72
5  Cc1nc2nc(Cl)c(-c3ccccc3F)c(NOCc3ccc(Cl)cc3)n2n1 [compound 368]             3.3

---

# PROTOCOL_DESCRIPTION: log P by HPLC
# Format: physicochemical
# TEST_CONDITIONS: HPLC, gradient method, acetonitrile/0.1% aqueous phosphoric acid; EEC directive 79/831 Annex V. A8
MEASUREMENT_LABEL: logP

> print(dat)
                                   molecule  value.measured
1  CCc1nc2nc(Cl)c(-c3c(F)cc(F)cc3F)c(NCCOC)n2n1 [compound 78]            2.68
2  CN(C)c1c(-c2c(F)cc(F)cc2F)c(Cl)nc2nc(C(F)(F)F)nn12 [compound 100]             3.6
3  COC(=O)CN(C)c1c(-c2ccc(F)cc2F)c(Cl)nc2nc(C3CC3)nn12 [compound 720]            2.95
4  CCc1nc2nc(Cl)c(-c3c(F)cc(F)cc3F)c(NCC(F)(F)F)n2n1 [compound 5]            3.06
5  CC1CCN(c2c(-c3c(F)cccc3Cl)c(Cl)nc3nc(C4CC4)nn23)CC1 [compound 706]            4.59

---

# PROTOCOL_DESCRIPTION: log P by HPLC
# Format: physicochemical
# TEST_CONDITIONS: HPLC, gradient method, acetonitrile/0.1% aqueous phosphoric acid; EEC directive 79/831 Annex V. A8
// reported logP for each item listed
MEASUREMENT_LABEL: logP

> print(dat)
                                   compound  measurement.label  value.measured
1  CCCN(CC1CCCO1)c1c(-c2ccc(F)cc2F)c(Cl)nc2nc(C3CC3)nn12 (stereo not drawn)               logP            4.22
2  CC(C)CN(C)c1c(-c2ccc(F)cc2F)c(Cl)nc2nc(C3CC3)nn12               logP            4.07
3  Cc1nc2nc(Cl)c(-c3c(F)cc(F)cc3F)c(N3CCCCC3)n2n1               logP            3.43

---

// reported logP for each item listed
# PROTOCOL_DESCRIPTION: log P by HPLC
# Type: physicochemical
# TEST_CONDITIONS: EEC directive 79/831 Annex V. A8 by HPLC (gradient method, acetonitrile/0.1% aqueous phosphoric acid)
MEASUREMENT_LABEL: logP

> print(dat)
                                   compound  measurement.label  value.measured
1     CNc1c(-c2c(F)cccc2F)c(Cl)nc2nc(C)nn12               logP            2.03
2  Fc1ccc(-c2c(Cl)nc3nc(C4CC4)nn3c2N2CCOCC2)c(F)c1               logP            2.85
3  Cc1nc2nc(Cl)c(-c3c(F)cccc3F)c(N3CCCCC3C(F)(F)F)n2n1 (stereo not drawn)               logP            3.33
4  Cc1nc2nc(Cl)c(-c3c(F)cc(F)cc3F)c(NC3CC3F)n2n1 (stereo not drawn)               logP             2.3
5  Cc1nc2nc(Cl)c(-c3ccccc3Cl)c(N3CCCCC3C)n2n1 (stereo not drawn)               logP            3.91
6  CCN(Cc1ccco1)c1c(-c2ccccc2Cl)c(Cl)nc2nc(C)nn12               logP            3.56
7  FC(F)(F)CNc1c(-c2ccccc2Cl)c(Cl)nc2nc(C3CC3)nn12               logP            3.22
8  Fc1ccc(-c2c(Cl)nc3nc(C4CC4)nn3c2N2CCc3ccccc3C2)c(F)c1               logP            3.87
9  Cc1nc2nc(Cl)c(-c3c(F)cccc3F)c(NC(C)CC(C)C)n2n1 (stereo not drawn)               logP            3.55

---

# PROTOCOL_DESCRIPTION: log P by HPLC
# Type: physicochemical
# TEST_CONDITIONS: HPLC, gradient method, acetonitrile/0.1% aqueous phosphoric acid; EEC directive 79/831 Annex V. A8
// reported logP for each item listed
MEASUREMENT_LABEL: logP

> print(dat)
                                    compound  value.measured
 1  CN(CC#N)c1c(-c2ccc(F)cc2F)c(Cl)nc2nc(C3CC3)nn12 [compound 719]            2.79
 2  C=CCN(CC)c1c(-c2c(F)cc(F)cc2F)c(Cl)nc2nc(C)nn12 [compound 157]             3.5
 3  CN(C)C1CCN(c2c(-c3ccc(F)cc3F)c(Cl)nc3nc(C(F)(F)F)nn23)C1 (stereo not drawn) [compound 795]            1.67
 4  CCN(CCOC)c1c(-c2ccc(F)cc2F)c(Cl)nc2nc(C)nn12 [compound 128]            2.84
 5  CCN(Cc1ccco1)c1c(-c2c(F)cc(F)cc2F)c(Cl)nc2nc(C)nn12 [compound 158]            3.55
 6  COCCNc1c(-c2c(F)cccc2F)c(Cl)nc2nc(C)nn12 [compound 177]            2.12
 7  CC(C)C(C)Nc1c(-c2c(F)cccc2Cl)c(Cl)nc2nc(C3CC3)nn12 (stereo not drawn) [compound 583]            4.12
 8  Cc1nc2nc(Cl)c(-c3ccc(F)cc3Cl)c(N[C@@H](C)C(F)(F)F)n2n1 (single isomer, unassigned) [compound 641]             3.2
 9  Fc1cc(F)c(-c2c(Cl)nc3nc(C(F)(F)F)nn3c2NC2CC2)c(F)c1 [compound 35]            3.53
10  Fc1ccc(-c2c(Cl)nc3nc(C(F)(F)F)nn3c2NCCC(F)(F)F)c(F)c1 [compound 529]             3.7
11  Cc1nc2nc(Cl)c(-c3ccc(F)c(Cl)c3)c(N(N)CC(C)C)n2n1 [compound 131]            3.31
12  Cc1nc2nc(Cl)c(-c3c(F)cc(F)cc3F)c(NC(C)C(C)C)n2n1 (stereo not drawn) [compound 134]            3.37
13  Fc1ccc(-c2c(Cl)nc3nc(C(F)(F)F)nn3c2NC2CC2)c(F)c1 [compound 531]            3.49
14  CCc1nc2nc(Cl)c(-c3c(F)cc(F)cc3F)c(NCC3CC3)n2n1 [compound 81]            3.23
15  Cc1nc2nc(Cl)c(-c3c(F)cc(F)cc3F)c(N3C(C)C=CC3C)n2n1 (stereo not drawn) [compound 117]            3.52
16  CC1CN(c2c(-c3ccc(F)cc3F)c(Cl)nc3nc(C(F)(F)F)nn23)CC(C)O1 (stereo not drawn) [compound 808]             4.1
17  Cc1nc2nc(Cl)c(-c3ccccc3Cl)c(N3CCC(C(F)(F)F)CC3)n2n1 [compound 232]            3.63
18  CCOC(=O)CN(C)c1c(-c2c(F)cc(F)cc2F)c(Cl)nc2nc(C)nn12 [compound 150]             2.8
19  CCNc1c(-c2c(F)cc(F)cc2F)c(Cl)nc2nc(C)nn12 [compound 87]            2.44
20  Cc1nc2nc(Cl)c(-c3ccc(F)cc3F)c(N3CCCCO3)n2n1 [compound 576]            2.95
21  Fc1cccc(Cl)c1-c1c(Cl)nc2nc(C3CC3)nn2c1N1CCCC1 [compound 704]            3.55
22  COCC(C)Nc1c(-c2c(F)cc(F)cc2F)c(Cl)nc2nc(C)nn12 (stereo not drawn) [compound 116]            2.64
23  COCCN(C)c1c(-c2ccc(F)cc2F)c(Cl)nc2nc(C3CC3)nn12 [compound 669]            3.16
24  Cc1nc2nc(Cl)c(-c3c(F)cc(F)cc3F)c(NC3CC3)n2n1 [compound 65]            2.51
25  Cc1nc2nc(Cl)c(-c3c(F)cccc3Cl)c(N(N)CC(C)C)n2n1 [compound 130]            3.12
26  Fc1cc(F)c(-c2c(Cl)nc3nc(C(F)(F)F)nn3c2N2CCCCC2)c(F)c1 [compound 104]            4.46
27  Fc1cccc(F)c1-c1c(Cl)nc2nc(C3CC3)nn2c1NCC(F)(F)F [compound 771]            3.04
